Tested on: TMD-8 cells
EXPERIMENT DESCRIPTION: TMD-8 anti-proliferation assay
Assay type: cell-based
COND: 72 hours
Description: TMD-8 Anti-Proliferation Assay TMD-8 cells were prepared in RPMI1640 media containing 10% foetal bovine, and plated in 384 well plates at 1500 cells per well, The cells were incubated overnight at 37° C., 5% CO2. […] Cell viability was determined using the CellTiter-Glo (Promega, USA). The CellTiter-Glo assay was performed according to the manufacturer's instructions, and luminescence was determined in a multi-label reader (Envision, PerkinElmer, USA). […]
pIC50: −log10 of the molar value.
OUTCOME MEASURE: pIC50

- Nc1ncnn2c(C3CCC(CO)OC3)nc(-c3ccc(Oc4ccccc4)cc3F)c12 (single isomer, unassigned) [Compound 10]: 7.49
- Nc1nccn2c(C3CCC(CO)OC3)nc(-c3ccc(Oc4ccccc4)cc3F)c12 (single isomer, unassigned) [Compound 2]: 7.64
- Nc1ncnn2c(C3CCC(CO)OC3)nc(-c3ccc(Oc4ccccc4)cc3F)c12 (single isomer, unassigned) [Compound 9]: 6.79
- Nc1ncnn2c(C3CCC(CO)OC3)nc(-c3ccc(Oc4ccccc4)cc3F)c12 (single isomer, unassigned) [Compound 8]: 7.11
